# Test system: HCC-2998 colon
# test_method_notes: NCI tumour cell line growth inhibition, 48 h
# key: entry, value: TGI

CCOP(=O)(COCCn1nc(Br)c(=O)[nH]c1=O)OCC: > 100 µM
O=C1Cc2ccccc2CCc2ccccc21: > 100 µM
O=C(O)Cn1c[n+](NC(=O)Cc2ccccc2)cn1: > 10 µM
N#Cc1ccnc(C(=O)N2CCCC2C(=O)O)c1 (stereo not given): > 100 µM

# evaluate next
Give the measured TGI of CCC1(Cl)C(=O)NC(=O)N(C2CC(O)C(CO)O2)C1N=[N+]=[N-] (stereo not given) .
> 100 µM

###

# Test system: NCI-H460 lung
# test_method_notes: NCI tumour cell line growth inhibition, 48 h
# key: entry, value: TGI

Nc1nc(Cl)cc(NCCCCCCNc2cc(Cl)nc(N)n2)n1: > 100 µM

Give the measured TGI of `N=C(N)SCC(=O)O` .
> 100 µM

What do we get for `C=CCN(c1cc(OC)c2[nH]c(C(=O)O)c(C)c2c1[N+](=O)[O-])S(C)(=O)=O` ?
> 100 µM

###

# key: entry, value: TGI
# System: LOX IMVI melanoma
# test_method_notes: NCI tumour cell line growth inhibition, 48 h

Some compounds with known TGI results, for comparison:
N=C(N)SCC(=O)O: > 100 µM
Fc1ccc(OCc2ccc3nc(-c4ccccc4)c(Cl)nc3c2)cc1: > 100 µM
CCOC(=O)C(=Cc1c(-c2ccccc2)[nH]c2ccccc12)C(=O)OCC: 19.4 µM
C=C1c2ccccc2N(S(=O)(=O)c2ccc(C)cc2)C12CCCCC2: > 100 µM
CCOC(=O)C(NC(=O)CC)(Nc1ccccc1F)C(F)(F)F (stereo unspecified): > 100 µM
O=c1[nH]nc(-c2ccc([N+](=O)[O-])cc2)[nH]1: > 100 µM
Cc1ccc(N2C(=O)/C(=C3\Sc4c(nc(C)n(C)c4=O)N3c3ccccc3)SC2=S)cc1: > 100 µM
c1cc2ccc1C1NCCCN1CCN1CCCNC1c1ccc(cc1)C1NCCCN1CCN1CCCNC21 (stereo unspecified): > 100 µM

Quick check: TGI on LOX IMVI melanoma, item `O=c1ccn([C@@H]2C=C(CO)[C@@H](O)[C@H]2O)c(=O)[nH]1` ?
> 625 µM

###

# Tested on: SR leukemia
# test_method_notes: NCI tumour cell line growth inhibition, 48 h
# key: entry, value: TGI

Some compounds with known TGI results, for comparison:
Cc1ccc(S(=O)c2ccc([N+](=O)[O-])c3nonc23)cc1 (stereo not drawn): > 100 µM
CC1=NN(c2cccc(Cl)c2)C2(C1=Cc1ccc(N(C)C)cc1)C(Cl)C(=O)N2c1nc2ccccc2s1 (stereo not drawn): > 100 µM
O=c1ncccn1C1OC(CO)C(O)C1F (stereo not drawn): > 100 µM

Give the measured TGI of `COc1ccc(CCn2ccc(=O)c(O)c2C)cc1OC` .
> 100 µM

What do we get for `C=C[C@@]1(C)CC(=O)[C@]2(O)[C@@]3(C)[C@@H](O)CCC(C)(C)[C@@H]3[C@H](O)[C@@H](OC(C)=O)[C@@]2(C)O1` ?
> 100 µM

What do we get for `CCCC(=O)Nc1cn(COC)c(C(=O)N2C[C@H]3C[C@@]34C2=CC(=O)c2[nH]cc(C)c24)n1` ?
> 100 µM

What do we get for `COc1ccc(C(=C2C(=O)OC(=O)C2=C(C)C)c2ccc(OC)cc2)cc1` ?
> 100 µM

What do we get for `C/C(N=NC(=S)N1CCCCCC1)=C1\C=CC=CN1O` ?
> 100 µM

What do we get for O=C1OC(c2ccc(Cl)c3ccccc23)c2ccccc21 (stereo not drawn) ?
> 100 µM

What do we get for `Cc1cc(S(N)(=O)=O)c(S/C(=N\NS(=O)(=O)c2ccccc2)c2ccc(Cl)c(Cl)c2)cc1Cl` ?
> 100 µM

What do we get for `O=C1c2cc3c(cc2-c2c1c1cc(F)c(F)cc1c(=O)n2C[C@H](O)CO)OCO3` ?
> 100 µM

What do we get for `COc1ccc(-c2cn(-c3cc(OC)c(OC)c(OC)c3)c(=O)n2-c2ccccc2)cc1` ?
> 100 µM

What do we get for NC(=O)c1ncn(C2OC(CO)C(O)C2O)c1NC(=S)NC(=O)c1ccccc1 (stereo not drawn) ?
> 100 µM

What do we get for Cc1nn(C(=O)c2ccccc2O)c2c1C(c1ccc([N+](=O)[O-])cc1)SC(N)=N2 (stereo not drawn) ?
> 10 µM

What do we get for C=C1C[C@@H]2CC[C@@]34CC5O[C@H]6C(O[C@H]7CC[C@H](CC(=O)O[C@@H]8[C@@H](C)[C@@H]9O[C@@H]%10C[C@]%11(C[C@@H]%12O[C@]%13(C[C@H](C)[C@@H]%14O[C@@H]%15CC(C(COC(C)=O)OC(C)=O)O[C@@H]%15C[C@@H]%14O%13)C[C@H](C)[C@@H]%12O%11)O[C@@H]%10C[C@@H]9O[C@H]8CC8O[C@@H](CC[C@@H]1O2)C[C@@H](C)C8(O)CO)O[C@@H]7[C@@H]6O3)[C@H]5O4 (stereo partly drawn) ?
> 1 µM

What do we get for C/C(=N\O)[C@H]1CC[C@@]2(C)[C@@H]3CC[C@H]4C(C)(C)/C(=N/O)CC[C@@]45CC35CC[C@]12C (stereo partly drawn) ?
> 16.7 µM

What do we get for CC1CCc2sc3[nH]c(=S)n(C)c(=O)c3c2C1 (stereo not drawn) ?
> 100 µM

What do we get for `COc1ccc2c(c1)c(-c1cc(-c3cn(C)c4ccc(OC)cc34)[nH]n1)cn2C` ?
> 100 µM

###

# key: entry, value: TGI
# Tested on: SN12C renal
# test_method_notes: NCI tumour cell line growth inhibition, 48 h

Some compounds with known TGI results, for comparison:
O=C1CCC(CCc2nc3ccccc3[nH]2)(c2ccccc2)C(=O)N1 (centres undefined): > 100 µM
O=c1cccc2n1CC1CNCC2C1 (centres undefined): > 100 µM
CSc1ncnc2c1cnn2Cc1cn(COCC(O)CO)nn1 (centres undefined): > 100 µM
COc1cc(/C=C2/C(=O)N(C(=O)c3ccccc3O)N=C2C)ccc1O: > 39.1 µM
O=c1ncccn1C1OC(CO)C(O)C1F (centres undefined): > 100 µM

Give the measured TGI of `CCOc1cccc(/C=N/NC(=O)Cc2ccc(Nc3ccnc(C(F)(F)F)c3)cc2)c1O` .
> 100 µM

What do we get for O=C(O)C(CS)N=Cc1nc(-c2ccccc2)oc1O (centres undefined) ?
> 100 µM

What do we get for `COc1ccc(-c2cn(-c3cc(OC)c(OC)c(OC)c3)c(=O)n2-c2ccccc2)cc1` ?
> 100 µM

What do we get for `CCn1c(-c2nonc2N)nc2c(C#CC(C)(C)O)ncc(OC[C@@H]3CCCN3)c21` ?
> 25 µM

###

# System: OVCAR-3 ovarian
# test_method_notes: NCI tumour cell line growth inhibition, 48 h
measured_metric: TGI

Some compounds with known TGI results, for comparison:
O=C(O)C12C3C4(C(=O)O)C1C1(C(=O)O)C2C3(C(=O)O)C41 (stereo not drawn): > 100 µM
CC(C)(C)[Si](C)(C)OC1CCOC1(O)c1ccccn1 (stereo not drawn): > 100 µM

# evaluate next
Give the measured TGI of `CC(=O)[O-].O=[N+]([O-])c1ccc([O-])c(C=NCCN=Cc2cc([N+](=O)[O-])ccc2[O-])c1.[Mn+3]` .
> 100 µM

###

# Tested on: UACC-62 melanoma
# test_method_notes: NCI tumour cell line growth inhibition, 48 h
measured_metric: TGI

Cc1nnc(N=Nc2c(O)[nH]c3ccccc23)[nH]c1=O: > 100 µM
CCC1(Cl)C(=O)NC(=O)N(C2CC(O)C(CO)O2)C1N=[N+]=[N-] (stereo not drawn): > 100 µM
C[C@@H](CCO)OC1OC(COC(=O)C(C)(C)C)C(OC(=O)C(C)(C)C)C(OC(=O)C(C)(C)C)C1OC(=O)C(C)(C)C (stereo partly drawn): > 100 µM

# evaluate next
Give the measured TGI of CCCCCCCCCCCCCCCCCCNC(=O)[C@H]1CSC(c2ccc(F)c(OC)c2)N1 (stereo partly drawn) .
1.28 µM

###

# key: entry, value: TGI
# Test system: T-47D breast
# test_method_notes: NCI tumour cell line growth inhibition, 48 h

Some compounds with known TGI results, for comparison:
Cc1cc([C@H](C)Nc2nccc(N3C(=O)OC[C@@H]3[C@H](C)F)n2)ncc1-c1ccnc(C(F)(F)F)c1: > 100 µM
CN(C)C(=O)/N=C1\SC(=Nc2ccccc2)C(=Nc2ccccc2)N1c1ccc([N+](=O)[O-])cc1: > 100 µM

Give the measured TGI of Fc1cccc(F)c1C1SCc2nc3cc(Cl)ccc3n21 (stereo not drawn) .
> 100 µM
